Tested on: SULT2A1
Assay: SULT2A1 enzyme activity assay: sulfate conjugation of DHEA with 35S-PAPS, COS-1 cytosol preparations of recombinant allozymes
Format: biochemical, human
measured.metric: activity relative to the reference SULT2A1 polypeptide (in words)

{"columns": ["molecule", "observed.value"],
 "data": [
  ["Lys227Glu: SULT2A1 allozyme having a glutamate at amino acid residue 227 in place of a lysine (protein, UniProt Q06520 1-285, looked up, variant K227E) Sulfotransferase 2A1: MSDDFLWFEGIAFPTMGFRSETLRKVRDEFVIRDEDVIILTYPKSGTNWLAEILCLMHSKGDAKWIQSVPIWERSPWVESEIGYTALSETESPRLFSSHLPIQLFPKSFFSSKAKVIYLMRNPRDVLVSGYFFWKNMKFIKKPKSWEEYFEWFCQGTVLYGSWFDHIHGWMPMREEKNFLLLSYEELKQDTGRTIEKICQFLGKTLEPEELNLILKNSSFQSMKENEMSNYSLLSVDYVVDKAQLLRKGVSGDWKNHFTVAQAEDFDKLFQEKMADLPRELFPWE", "reduced activity"],
  ["Ala63Pro: SULT2A1 allozyme having a proline at amino acid residue 63 in place of alanine (protein, UniProt Q06520 1-285, looked up, variant A63P) Sulfotransferase 2A1: MSDDFLWFEGIAFPTMGFRSETLRKVRDEFVIRDEDVIILTYPKSGTNWLAEILCLMHSKGDPKWIQSVPIWERSPWVESEIGYTALSETESPRLFSSHLPIQLFPKSFFSSKAKVIYLMRNPRDVLVSGYFFWKNMKFIKKPKSWEEYFEWFCQGTVLYGSWFDHIHGWMPMREEKNFLLLSYEELKQDTGRTIEKICQFLGKTLEPEELNLILKNSSFQSMKENKMSNYSLLSVDYVVDKAQLLRKGVSGDWKNHFTVAQAEDFDKLFQEKMADLPRELFPWE", "reduced activity"],
  ["63Pro/261Thr: SULT2A1 polypeptide with a proline at position 63 and a threonine at position 261 (double variant) (protein, UniProt Q06520 1-285, looked up, variant A63P A261T) Sulfotransferase 2A1: MSDDFLWFEGIAFPTMGFRSETLRKVRDEFVIRDEDVIILTYPKSGTNWLAEILCLMHSKGDPKWIQSVPIWERSPWVESEIGYTALSETESPRLFSSHLPIQLFPKSFFSSKAKVIYLMRNPRDVLVSGYFFWKNMKFIKKPKSWEEYFEWFCQGTVLYGSWFDHIHGWMPMREEKNFLLLSYEELKQDTGRTIEKICQFLGKTLEPEELNLILKNSSFQSMKENKMSNYSLLSVDYVVDKAQLLRKGVSGDWKNHFTVTQAEDFDKLFQEKMADLPRELFPWE", "reduced activity"]
]}
